Data origin: paper PMC11635510

- system: BChE (Homo sapiens, UniProt P06276)
- Sequence (P06276 29-602, species assumed): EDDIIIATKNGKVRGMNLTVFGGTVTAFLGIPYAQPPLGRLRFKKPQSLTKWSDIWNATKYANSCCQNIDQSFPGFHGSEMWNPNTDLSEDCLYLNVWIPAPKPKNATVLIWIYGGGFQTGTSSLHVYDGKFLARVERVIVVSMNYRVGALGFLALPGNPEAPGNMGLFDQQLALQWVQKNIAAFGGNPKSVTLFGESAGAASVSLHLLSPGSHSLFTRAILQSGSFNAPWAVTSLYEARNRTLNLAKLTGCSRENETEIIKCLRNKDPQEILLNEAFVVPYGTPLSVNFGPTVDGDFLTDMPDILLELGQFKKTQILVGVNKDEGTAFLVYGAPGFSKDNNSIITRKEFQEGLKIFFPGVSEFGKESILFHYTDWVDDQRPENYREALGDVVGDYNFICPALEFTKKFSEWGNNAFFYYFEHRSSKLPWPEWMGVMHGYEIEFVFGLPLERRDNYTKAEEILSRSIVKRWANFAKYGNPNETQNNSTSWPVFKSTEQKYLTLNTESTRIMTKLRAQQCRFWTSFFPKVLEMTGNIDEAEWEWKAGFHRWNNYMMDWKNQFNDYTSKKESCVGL
pIC50: −log10 of the molar value.
Threshold check on pIC50: at or above 6 gives Condition met, strictly below gives Condition not met.

| molecule | label-value |
| --- | --- |
| O=C(NCc1ccc[n+](Cc2ccc([N+](=O)[O-])cc2)c1)c1ccc(CN2C(=O)c3ccccc3C2=O)cc1 [Compound 7l] | Condition not met |
| O=C(NCc1ccc[n+](Cc2cccc(Cl)c2)c1)c1ccc(CN2C(=O)c3ccccc3C2=O)cc1 [Compound 7f] | Condition met |
| O=C(NCc1ccc[n+](Cc2ccccc2F)c1)c1ccc(CN2C(=O)c3ccccc3C2=O)cc1 [Compound 7b] | Condition met |
| O=C(NCc1ccc[n+](Cc2ccccc2)c1)c1ccc(CN2C(=O)c3ccccc3C2=O)cc1.[Br-] [Compound 7a] | Condition met |

Then this molecule:
Does pIC50 meet or surpass 6 for CCCCC[n+]1cccc(CNC(=O)c2ccc(CN3C(=O)c4ccccc4C3=O)cc2)c1 [Compound 7p] ?
Condition not met
